- MEASUREMENT_PROTOCOL: in vivo
- Parameters: species or system mouse
- EXPERIMENTAL_SETUP: female, CD1, mouse, in vivo, po, 10 mg/kg/day, mouse, 10 mg/kg/day p.o., Day 8
- Experimental: […]. All mice were fed prior to dosing. After dosing, 200 uL of blood was collected at predetermined time points (pre, 1, 3, 7, 24 h). Blood samples were processed for plasma by centrifugation at approximately 4 °C, 4,500 g for 15 min within min of collection. […] Plasma concentration versus time data was analyzed by non-compartmental approaches using the Phoenix WinNonlin 6.3 software program. […]
ASSAY_READOUT: Tmax (h)
Please respond with the number in h and leave the unit unwritten.

"COc1ccc(NC(=O)N2CCCCN3[C@H](CN(C)C)[C@H](c4ccc(C#Cc5ccccc5)cc4)[C@@H]3C2)cc1" yielded Tmax of 5
